- Measured on: Serine/threonine-protein kinase 33 (Homo sapiens)
- Measurement notes: inhibition of purified STK33 phosphorylating MBP – biochemical, ADP-Glo luminescence, dry powder, set 3, dose response (AID 602158)
- Experimental parameters: purified STK33, MBP phosphorylation
Records with an inconclusive call do not appear.
// AC50 lookup, one value per entry

* Cc1ccc(C(=O)Nc2ccccc2-c2nc3ccccc3[nH]c2=O)cc1 | 763 nM
* O=C(Nc1ccccc1-c1nc2ccccc2[nH]c1=O)c1ccc(Cl)cc1 | 297 nM
* O=c1[nH]c2ccccc2nc1-c1ccccc1NCc1ccccn1 | 1540 nM
* O=C(Nc1ccccc1-c1nc2ccccc2[nH]c1=O)c1ccccc1F | 4860 nM
* O=c1[nH]c2ccccc2nc1-c1ccccc1NS(=O)(=O)c1ccccc1 | 7250 nM
* COc1cccc(C(=O)Nc2ccccc2-c2nc3ccccc3[nH]c2=O)c1 | 2240 nM
* O=C(Nc1ccccc1-c1nc2ccccc2[nH]c1=O)c1ccccc1 | 165 nM
* Cc1cccc(C(=O)Nc2ccccc2-c2nc3ccccc3[nH]c2=O)c1 | 1550 nM

Query: AC50; subject: O=C(Nc1ccccc1-c1nc2ccccc2[nH]c1=O)c1nccs1
522 nM

How about this molecule: O=C(Nc1ccccc1-c1nc2ccccc2[nH]c1=O)c1ccc(Cl)s1
380 nM

The reported numbers originate from PubChem BioAssay AID602158.
